# system.name: UniProt P28845
parameter: IC50 (nM)
// note: answer is a bare numeric in nM

| record.smiles | IC50 [nM] |
| --- | --- |
| Cn1c(-c2ccc(OC(F)(F)F)cc2)nnc1C1(c2ccc(Cl)cc2)CCC1 | 13 |
| Cn1c(-c2ccc(-c3ccccc3)cc2)nnc1C1(c2ccc(Cl)cc2)CCC1 | 11 |

Ask | Provide measured IC50 value, entry: `Cn1c(-c2ccccc2)nnc1C1(c2ccc(Cl)cc2)CCC1`
Reply | 1.7

###

Here, each record is paired with measured IC50 data.
# system.name: 11-beta-hydroxysteroid dehydrogenase type 2 (Mus musculus)
# Sequence (P51661 whole entry): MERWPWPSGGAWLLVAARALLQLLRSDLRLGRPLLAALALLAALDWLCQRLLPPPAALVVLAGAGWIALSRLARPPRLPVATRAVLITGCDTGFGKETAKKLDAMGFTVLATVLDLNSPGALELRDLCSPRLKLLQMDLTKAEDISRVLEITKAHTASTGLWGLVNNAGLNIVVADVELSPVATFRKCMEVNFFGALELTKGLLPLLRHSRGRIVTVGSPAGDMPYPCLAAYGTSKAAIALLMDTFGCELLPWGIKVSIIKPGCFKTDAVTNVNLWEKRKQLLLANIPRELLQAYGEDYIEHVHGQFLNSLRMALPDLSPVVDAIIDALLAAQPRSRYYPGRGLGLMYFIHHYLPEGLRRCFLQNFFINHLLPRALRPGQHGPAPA

Ask | Give the reported IC50 for this molecule. `Cn1c(-c2ccc(-n3ccnc3C(F)(F)F)cc2Cl)nnc1C1(c2ccc(Cl)cc2)CCC1`
Reply | > 4 µM

Ask | // fetch IC50 given entry `Cn1c(-c2ccccc2O)nnc1C1(c2ccc(Cl)cc2)CCC1`
Reply | > 4 µM

Ask | Give the reported IC50 for this molecule. `Cn1c(-c2cccc(-c3ccccc3)c2)nnc1C1(c2ccc(Cl)cc2)CCC1`
Reply | > 4 µM

###

// endpoint pIC50 / system 11-beta-hydroxysteroid dehydrogenase 1 (Homo sapiens, UniProt P28845)
Bear in mind: pIC50 is minus log10 of a mol/L concentration; give just that figure.

Consider the reported pIC50 for these compounds:
| compound | pIC50 |
| --- | --- |
| CCS(=O)(=O)c1ccc(-c2ccc(-c3nnc(C4(c5ccc(Cl)cc5)CCC4)n3C)c(Cl)c2)cc1 | 8.68 |
| Cn1c(-c2ccccc2C(F)(F)F)nnc1C1(c2ccc(Cl)cc2)CCC1 | 8.70 |
| Cn1c(-c2cccc(-c3ccccc3)c2)nnc1C1(c2ccc(Cl)cc2)CCC1 | 8.37 |

Ask | For `COc1ccccc1-c1nnc(C2(c3ccc(Cl)cc3)CCC2)n1C` , write its pIC50.
Reply | 8.57

Ask | Specify pIC50 for `Cn1c(-c2ccc(-n3ccnc3)cc2Cl)nnc1C1(c2ccc(Cl)cc2)CCC1` and stop.
Reply | 9.00

###

# system.name: 11-beta-hydroxysteroid dehydrogenase 1 (Mus musculus)
Measured IC50 by item
Numeric only. Scale: nM

Past entries and their recorded results:
| record.smiles | unit.abbrev | reported |
| --- | --- | --- |
| Cn1c(-c2ccc(-c3ccccn3)cc2Cl)nnc1C1(c2ccc(Cl)cc2)CCC1 | nM | 1.4 |
| Cn1c(-c2ccccc2OC(F)(F)F)nnc1C1(c2ccc(Cl)cc2)CCC1 | nM | 4.1 |
| Cn1c(-c2ccc(-c3ccccc3)cc2Cl)nnc1C1(c2ccc(Cl)cc2)CCC1 | nM | 1.4 |
| Cn1c(-c2ccc(-c3ccc(F)cc3)cc2)nnc1C1(c2ccc(Cl)cc2)CCC1 | nM | 9.1 |
| Cn1c(-c2cccc(Cl)c2)nnc1C1(c2ccc(Cl)cc2)CCC1 | nM | 34 |

Ask | Name the value of IC50 reported for `Cn1c(-c2ccc(-c3cccnc3)cc2Cl)nnc1C1(c2ccc(Cl)cc2)CCC1` when tested on 11-beta-hydroxysteroid dehydrogenase 1 (Mus musculus).
Reply | 1.3

Ask | Under 11-beta-hydroxysteroid dehydrogenase 1 (Mus musculus): report IC50 of `Cn1c(-c2ccc(F)cc2)nnc1C1(c2ccc(Cl)cc2)CCC1` .
Reply | 101

###

# system.name: 11-beta-hydroxysteroid dehydrogenase 1 (Homo sapiens, UniProt P28845)
# Sequence (P28845 whole entry): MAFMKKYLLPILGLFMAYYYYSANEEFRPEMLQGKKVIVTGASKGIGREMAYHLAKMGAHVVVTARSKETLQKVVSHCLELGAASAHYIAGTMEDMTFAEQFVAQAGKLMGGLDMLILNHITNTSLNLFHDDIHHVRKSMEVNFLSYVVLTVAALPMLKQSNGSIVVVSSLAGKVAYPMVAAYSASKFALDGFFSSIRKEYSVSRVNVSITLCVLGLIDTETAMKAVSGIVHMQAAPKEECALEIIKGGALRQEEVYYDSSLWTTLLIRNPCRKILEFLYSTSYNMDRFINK
Listed here are molecules together with their documented log10 of IC50.
Parameter value (number): base-10 log of IC50 in nM.

| molecule | log10 of IC50 |
| --- | --- |
| Cn1c(-c2ccc(-c3ccncc3)cc2Cl)nnc1C1(c2ccc(Cl)cc2)CCC1 | 0.00 |
| COc1ccc(-c2nnc(C3(c4ccc(Cl)cc4)CCC3)n2C)cc1F | 0.48 |
| Cn1c(-c2ccc(-n3cccc3)cc2)nnc1C1(c2ccc(Cl)cc2)CCC1 | 0.48 |
| Cn1c(-c2ccc(-c3cccc(S(C)(=O)=O)c3)cc2Cl)nnc1C1(c2ccc(Cl)cc2)CCC1 | -0.01 |
| Cn1c(-c2ccc(-c3cccnc3)cc2Cl)nnc1C1(c2ccc(Cl)cc2)CCC1 | 0.00 |
| Cn1c(-c2ccccc2)nnc1C12CC3CC(CC(C3)C1)C2 [FIG 1] | 1.57 |
| Cn1c(-c2ccc(C(F)(F)F)cc2)nnc1C1(c2ccc(Cl)cc2)CCC1 | 0.97 |
| Cc1nc2ccccc2n1-c1ccc(-c2nnc(C3(c4ccc(Cl)cc4)CCC3)n2C)c(Cl)c1 | 1.08 |

Ask | Please supply the value of reported log10 of IC50 for the item `Cn1c(-c2ccc(-n3ccnc3)cc2)nnc1C1(c2ccc(Cl)cc2)CCC1`
Reply | 0.54

Ask | Fill in log10 of IC50 for record `Cn1c(-c2ccc(Oc3ccccc3)cc2)nnc1C1(c2ccc(Cl)cc2)CCC1`
Reply | 1.41

Ask | Give me measured log10 of IC50, please, for this molecule: `Cn1c(-c2ccc(OC3CC3)cc2)nnc1C1(c2ccc(Cl)cc2)CCC1`
Reply | 1.00

Ask | Fill in reported log10 of IC50 for this entry: `Cc1cn(-c2ccc(-c3nnc(C4(c5ccc(Cl)cc5)CCC4)n3C)c(Cl)c2)c(C)n1`
Reply | 0.84

Ask | Give me measured log10 of IC50, please, for this molecule: `Clc1ccc(C2(c3nnc4n3CCCCCC4)CCC2)cc1`
Reply | 0.11

Ask | Answer with the recorded log10 of IC50 for the molecule listed here: `Cn1c(-c2ccccc2O)nnc1C1(c2ccc(Cl)cc2)CCC1`
Reply | 0.26

Ask | Write down log10 of IC50 measured for item `Cn1c(-c2ccc(-c3ccc(F)cc3)cc2)nnc1C1(c2ccc(Cl)cc2)CCC1`
Reply | 1.04

###

# pIC50 measurements, system: 11-beta-hydroxysteroid dehydrogenase 1 (Mus musculus, UniProt P50172)
# Sequence (P50172 whole entry): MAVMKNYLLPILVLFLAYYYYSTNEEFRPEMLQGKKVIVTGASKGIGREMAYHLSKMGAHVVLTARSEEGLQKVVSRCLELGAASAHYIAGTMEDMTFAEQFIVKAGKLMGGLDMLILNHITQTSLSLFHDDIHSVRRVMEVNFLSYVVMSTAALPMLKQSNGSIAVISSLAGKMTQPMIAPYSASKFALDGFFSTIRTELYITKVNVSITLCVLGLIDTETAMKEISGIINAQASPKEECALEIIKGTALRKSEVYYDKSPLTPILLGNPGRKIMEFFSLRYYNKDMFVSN
The scale used: pIC50 is minus the common logarithm of the concentration in molar units.

Observe how each entry below is paired with its result.
| record.smiles | system.name | pIC50 |
| --- | --- | --- |
| CCS(=O)(=O)c1ccc(-c2ccc(-c3nnc(C4(c5ccc(Cl)cc5)CCC4)n3C)c(Cl)c2)cc1 | 11-beta-hydroxysteroid dehydrogenase 1 (Mus musculus, UniProt P50172) | 9.01 |
| Cc1cn(-c2ccc(-c3nnc(C4(c5ccc(Cl)cc5)CCC4)n3C)c(Cl)c2)c(C2CC2)n1 | 11-beta-hydroxysteroid dehydrogenase 1 (Mus musculus, UniProt P50172) | 8.22 |

Ask | # return recorded pIC50 for input `Cn1c(-c2ccccc2C(F)(F)F)nnc1C1(c2ccc(Cl)cc2)CCC1`
Reply | 8.40

Data credit: ChEMBL document CHEMBL1150311
